Test: first-in-human single ascending dose and food-effect study, plasma pharmacokinetics
Assay type: in vivo
Settings: both sexes, human, plasma, po, 250 mg, plasma NRL-1049; mean; 250 mg NRL-1049 single oral, fasting, Cohort 4, N = 6; read-out: AUCinf
OUTCOME_MEASURE: AUC(0-inf) (ng·h/mL)
Report the figure in ng·h/mL without appending any unit label.

IN: Consider the compound C[C@@H](N)C1CCN(S(=O)(=O)c2cccc3cnccc23)CC1 [NRL-1049] and give its recorded AUC(0-inf).
OUT: 78.2

----------
Experiment: nonclinical pharmacokinetics after a single oral dose
Format: in vivo, mice, rats, and monkeys
Conditions: mouse, rat, monkey, plasma; single oral dose of NRL-1049; range over mice, rats, and monkeys; read-out: time to maximum plasma concentration (Tmax)
# key: entry, value: Tmax

C[C@@H](N)C1CCN(S(=O)(=O)c2cccc3cnccc23)CC1 [NRL-1049]	0.25 to 2 h

Please look at the following compound next.
IN: Consider the compound C[C@@H](N)C1CCN(S(=O)(=O)c2cccc3c(O)nccc23)CC1 [NRL-2017, 1-hydroxy NRL-1049] . State its measured Tmax.
OUT: 0.5 to 4 h

----------
Target: OATP1B1 (Homo sapiens, UniProt Q9Y6L6)
Sequence (Q9Y6L6 whole entry): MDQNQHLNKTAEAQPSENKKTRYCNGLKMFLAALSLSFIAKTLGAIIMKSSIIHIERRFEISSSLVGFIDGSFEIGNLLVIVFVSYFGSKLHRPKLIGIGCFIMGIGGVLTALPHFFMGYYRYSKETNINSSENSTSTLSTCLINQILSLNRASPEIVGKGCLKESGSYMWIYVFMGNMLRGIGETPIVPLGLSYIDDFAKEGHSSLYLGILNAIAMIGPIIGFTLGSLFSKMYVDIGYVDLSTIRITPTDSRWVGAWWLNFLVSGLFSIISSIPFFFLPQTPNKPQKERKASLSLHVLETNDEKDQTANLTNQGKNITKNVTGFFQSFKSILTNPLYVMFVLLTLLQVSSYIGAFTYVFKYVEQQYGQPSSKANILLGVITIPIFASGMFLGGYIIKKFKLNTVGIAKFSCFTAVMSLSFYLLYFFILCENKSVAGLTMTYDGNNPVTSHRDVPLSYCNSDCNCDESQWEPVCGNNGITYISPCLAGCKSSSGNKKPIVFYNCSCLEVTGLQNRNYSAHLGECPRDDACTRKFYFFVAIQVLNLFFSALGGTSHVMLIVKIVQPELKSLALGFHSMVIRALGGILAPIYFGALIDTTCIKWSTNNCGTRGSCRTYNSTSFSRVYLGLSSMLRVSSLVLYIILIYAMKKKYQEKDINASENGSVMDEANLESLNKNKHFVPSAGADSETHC
OUTCOME_MEASURE: IC50

IN: For the molecule C[C@@H](N)C1CCN(S(=O)(=O)c2cccc3cnccc23)CC1 , report IC50.
OUT: > 100 µM

----------
Assay: first-in-human single ascending dose and food-effect study, plasma pharmacokinetics
Type: in vivo
Conditions: both sexes, human, plasma, po, 250 mg, plasma NRL-1049; mean; 250 mg NRL-1049 single oral, fasting, Cohort 4, N = 6; read-out: AUC0-T
OUTCOME_MEASURE: AUC(0-t) (ng·h/mL)
Report the value in ng·h/mL with no unit label.

IN: Using known records, supply AUC(0-t) for C[C@@H](N)C1CCN(S(=O)(=O)c2cccc3cnccc23)CC1 [NRL-1049]
OUT: 76.5

----------
Experiment: first-in-human single ascending dose and food-effect study, plasma pharmacokinetics
Type: in vivo
Settings: both sexes, human, plasma, po, 75 mg, plasma NRL-1049; median; 75 mg NRL-1049 single oral, fasting, Cohort 2, N = 6; read-out: Tmax
OUTCOME_MEASURE: Tmax (min)
Give your result in min as a bare value.

IN: Hello, please tell me recorded Tmax for this one: C[C@@H](N)C1CCN(S(=O)(=O)c2cccc3cnccc23)CC1
OUT: 30

----------
Test: first-in-human single ascending dose and food-effect study, plasma pharmacokinetics
Assay type: in vivo
Details: both sexes, human, plasma, oral; range over the dose groups 25 to 250 mg NRL-1049, fasting state; read-out: mean elimination half-life
OUTCOME_MEASURE: half-life

C[C@@H](N)C1CCN(S(=O)(=O)c2cccc3c(O)nccc23)CC1 [NRL-2017, 1-hydroxy NRL-1049]	12.3 to 17.3 h

IN: Give the reported half-life for this compound. C[C@@H](N)C1CCN(S(=O)(=O)c2cccc3cnccc23)CC1 [NRL-1049]
OUT: 0.52 to 1.26 h

----------
System: CYP3A4/5
Test: CYP inhibition
Assay type: in vitro ADME
Settings: human, first of the two values printed 23/110, read-out: half-maximal inhibitory concentration (IC50)
OUTCOME_MEASURE: pIC50
Field pIC50 (float): negative decimal logarithm of the concentration in molar.

IN: Specify measured pIC50 for C[C@@H](N)C1CCN(S(=O)(=O)c2cccc3cnccc23)CC1 .
OUT: 4.64

----------
Biological target: MATE1 (Homo sapiens)
Sequence (Q96FL8 whole entry): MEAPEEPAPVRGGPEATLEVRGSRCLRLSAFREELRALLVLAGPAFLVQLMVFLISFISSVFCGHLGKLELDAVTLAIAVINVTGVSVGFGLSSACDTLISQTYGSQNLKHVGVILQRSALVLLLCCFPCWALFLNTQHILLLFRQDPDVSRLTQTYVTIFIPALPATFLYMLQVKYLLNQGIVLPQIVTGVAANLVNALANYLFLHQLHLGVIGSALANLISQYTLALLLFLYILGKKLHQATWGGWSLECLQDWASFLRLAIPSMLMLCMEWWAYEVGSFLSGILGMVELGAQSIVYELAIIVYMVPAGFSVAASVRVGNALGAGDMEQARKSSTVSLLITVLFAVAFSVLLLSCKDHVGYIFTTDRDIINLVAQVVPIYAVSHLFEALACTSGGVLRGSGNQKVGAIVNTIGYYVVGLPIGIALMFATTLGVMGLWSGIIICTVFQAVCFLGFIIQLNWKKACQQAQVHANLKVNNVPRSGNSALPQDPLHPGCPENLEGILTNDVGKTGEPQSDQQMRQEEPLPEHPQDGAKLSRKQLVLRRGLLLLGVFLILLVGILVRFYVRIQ
pIC50: −log10 of the molar value.
OUTCOME_MEASURE: pIC50

IN: Provide pIC50, system MATE1 (Homo sapiens), entry C[C@@H](N)C1CCN(S(=O)(=O)c2cccc3cnccc23)CC1
OUT: 4.18 to 5.07

----------
Target: CYP2C8 (Homo sapiens)
Sequence (P10632 whole entry): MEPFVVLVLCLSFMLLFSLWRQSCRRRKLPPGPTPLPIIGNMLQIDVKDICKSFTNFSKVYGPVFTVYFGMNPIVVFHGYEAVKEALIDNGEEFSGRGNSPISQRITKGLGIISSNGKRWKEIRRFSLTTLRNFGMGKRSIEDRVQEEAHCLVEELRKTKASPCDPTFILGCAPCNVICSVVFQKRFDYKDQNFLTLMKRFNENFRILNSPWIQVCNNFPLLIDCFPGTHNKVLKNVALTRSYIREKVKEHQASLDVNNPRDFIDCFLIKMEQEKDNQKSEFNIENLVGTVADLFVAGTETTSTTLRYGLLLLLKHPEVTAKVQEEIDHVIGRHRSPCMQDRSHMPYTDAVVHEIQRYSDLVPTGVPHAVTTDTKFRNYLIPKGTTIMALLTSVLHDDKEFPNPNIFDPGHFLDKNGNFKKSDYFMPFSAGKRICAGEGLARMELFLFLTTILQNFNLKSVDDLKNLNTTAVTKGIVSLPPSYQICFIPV
Experiment: CYP inhibition
Format: in vitro ADME
Conditions: read-out: half-maximal inhibitory concentration (IC50)
OUTCOME_MEASURE: pIC50
Hey, just a heads up that pIC50 is the negative log base 10 of the concentration in molar.

IN: Answer with the recorded pIC50 of C[C@@H](N)C1CCN(S(=O)(=O)c2cccc3cnccc23)CC1 only.
OUT: 3.80

----------
Test: first-in-human single ascending dose and food-effect study, plasma pharmacokinetics
Type: in vivo
Settings: both sexes, human, plasma, po, 150 mg, plasma NRL-1049; median; 150 mg NRL-1049 single oral, Fasted, Cohort 3, N = 6; read-out: Tmax
Experimental: This was a first-in-human, single center, randomized, double-blind, placebo-controlled, single ascending dose (SAD) study, including a food-effect assessment, in healthy male and female subjects. Up to 44 subjects were included in the study. […] Study drugs (NRL-1049 or placebo) were administered in the morning. The date and time of each dose was recorded. […]
OUTCOME_MEASURE: Tmax
Please state the value followed by its unit.

IN: Tell me measured Tmax for C[C@@H](N)C1CCN(S(=O)(=O)c2cccc3cnccc23)CC1 please.
OUT: 30 min

----------
Assay: first-in-human single ascending dose and food-effect study, plasma pharmacokinetics
Format: in vivo
Conditions: both sexes, human, plasma, po, 250 mg, plasma NRL-1049; mean; 250 mg NRL-1049 single oral, fasting, Cohort 4, N = 6; read-out: Vz/F
Experimental: This was a first-in-human, single center, randomized, double-blind, placebo-controlled, single ascending dose (SAD) study, including a food-effect assessment, in healthy male and female subjects. Up to 44 subjects were included in the study. […] Study drugs (NRL-1049 or placebo) were administered in the morning. The date and time of each dose was recorded. […]
OUTCOME_MEASURE: Vd/F (L)
Answer with a number only, understood to be in L.

IN: Kindly indicate its recorded Vd/F. Item: C[C@@H](N)C1CCN(S(=O)(=O)c2cccc3cnccc23)CC1 [NRL-1049]
OUT: 4940

----------
Protein target, amino acids: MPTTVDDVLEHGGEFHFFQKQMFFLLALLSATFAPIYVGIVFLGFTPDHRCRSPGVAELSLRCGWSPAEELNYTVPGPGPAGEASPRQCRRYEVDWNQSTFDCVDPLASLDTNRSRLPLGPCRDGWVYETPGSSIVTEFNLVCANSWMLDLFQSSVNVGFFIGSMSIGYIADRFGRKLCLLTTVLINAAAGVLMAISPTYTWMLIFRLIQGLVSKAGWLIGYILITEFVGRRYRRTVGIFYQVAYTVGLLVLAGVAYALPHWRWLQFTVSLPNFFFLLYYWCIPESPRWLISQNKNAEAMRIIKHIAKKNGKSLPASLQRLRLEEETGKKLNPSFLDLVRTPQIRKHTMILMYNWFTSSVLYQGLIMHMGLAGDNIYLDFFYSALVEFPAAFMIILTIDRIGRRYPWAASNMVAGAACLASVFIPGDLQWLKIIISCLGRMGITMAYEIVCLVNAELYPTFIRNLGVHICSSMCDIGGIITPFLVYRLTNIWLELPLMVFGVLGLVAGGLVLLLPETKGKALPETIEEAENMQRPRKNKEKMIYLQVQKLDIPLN
pIC50: −log10 of the molar value.
OUTCOME_MEASURE: pIC50

IN: In one line, give reported pIC50 of the entry C[C@@H](N)C1CCN(S(=O)(=O)c2cccc3cnccc23)CC1 .
OUT: 4.18 to 5.07
